Recorded values, source ChEMBL document CHEMBL5291721.

# Target of assay: Muscarinic acetylcholine receptor M2 (Homo sapiens, UniProt P08172); further: assay procedure not described here
# Sequence (P08172 whole entry): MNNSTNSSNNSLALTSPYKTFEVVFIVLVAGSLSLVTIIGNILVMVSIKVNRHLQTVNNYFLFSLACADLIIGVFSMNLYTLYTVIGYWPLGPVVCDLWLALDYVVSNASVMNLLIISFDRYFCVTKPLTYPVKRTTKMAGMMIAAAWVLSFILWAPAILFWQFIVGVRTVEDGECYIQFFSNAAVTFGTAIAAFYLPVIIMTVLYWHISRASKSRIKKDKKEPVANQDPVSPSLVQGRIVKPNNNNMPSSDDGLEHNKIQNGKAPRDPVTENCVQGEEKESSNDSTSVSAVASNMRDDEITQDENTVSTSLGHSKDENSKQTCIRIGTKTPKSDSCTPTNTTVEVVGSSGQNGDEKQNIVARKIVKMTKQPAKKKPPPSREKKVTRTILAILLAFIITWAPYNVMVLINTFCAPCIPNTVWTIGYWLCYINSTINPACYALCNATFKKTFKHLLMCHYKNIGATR
Reported values of AC50 for individual entries

Some solved cases for reference:
Cc1ccccc1N1CCN(CCc2nnc3n2CCCC3)CC1 :: 7.61 µM
OC[C@H]1O[C@@](CO)(O[C@H]2O[C@H](CO)[C@@H](O)[C@H](O)[C@H]2O)[C@@H](O)[C@@H]1O :: > 30 µM

Prompt: For Muscarinic acetylcholine receptor M2 (Homo sapiens, UniProt P08172), provide AC50 of CC[C@H](c1ccc(O)cc1)[C@@H](CC)c1ccc(O)cc1 please.
Response: 18.7 µM

Prompt: Could you share what AC50 was measured for COC(=O)c1ccc(O)cc1 , tested on Muscarinic acetylcholine receptor M2 (Homo sapiens, UniProt P08172)?; further: assay procedure not described here
Response: > 30 µM

Prompt: Recall the recorded AC50 for Cc1onc(-c2ccccc2)c1C(=O)N[C@@H]1C(=O)N2[C@@H]1SC(C)(C)[C@@H]2C(=O)O with Muscarinic acetylcholine receptor M2 (Homo sapiens, UniProt P08172) and state it.
Response: > 30 µM

Prompt: Provide value of AC50 for this record tested with Muscarinic acetylcholine receptor M2 (Homo sapiens, UniProt P08172): CCC(=O)O[C@]1(C(=O)SCF)[C@H](C)C[C@H]2[C@@H]3C[C@H](F)C4=CC(=O)C=C[C@]4(C)[C@@]3(F)[C@@H](O)C[C@@]21C [FLUTICASONE PROPIONATE]
Response: > 30 µM

Prompt: Notebook entry, Muscarinic acetylcholine receptor M2 (Homo sapiens, UniProt P08172) assay: AC50 of CC(C)C[C@H](NC(=O)CNC(=O)c1cc(Cl)ccc1Cl)B(O)O = ?
Response: > 30 µM

Prompt: Give recorded AC50 with Muscarinic acetylcholine receptor M2 (Homo sapiens, UniProt P08172) for the following compound: CCOC(=O)[C@H](CCc1ccccc1)N[C@@H](C)C(=O)N(CC(=O)O)C1Cc2ccccc2C1
Response: > 30 µM

Prompt: Param readout = AC50; param system = Muscarinic acetylcholine receptor M2 (Homo sapiens, UniProt P08172); param query = CC(CN1CC(=O)NC(=O)C1)N1CC(=O)NC(=O)C1 (configuration not stated) ; response: value; further: assay procedure not described here
Response: > 30 µM

Prompt: Missing value: AC50, Muscarinic acetylcholine receptor M2 (Homo sapiens, UniProt P08172), entry COc1c2ccoc2cc2oc(=O)ccc12 . Fill in?
Response: > 30 µM

Prompt: Please provide the recorded AC50 for O=C(O)c1cc(/N=N/c2ccc(O)c(C(=O)O)c2)ccc1O , tested on Muscarinic acetylcholine receptor M2 (Homo sapiens, UniProt P08172). Further: assay procedure not described here.
Response: > 30 µM

Prompt: Which AC50 is reported with Muscarinic acetylcholine receptor M2 (Homo sapiens, UniProt P08172) for this entry: C[C@H](Cc1cc2c(c(C(N)=O)c1)N(CCCO)CC2)NCCOc1ccccc1OCC(F)(F)F ?
Response: > 30 µM

Prompt: Hello, I am looking for reported AC50 with Muscarinic acetylcholine receptor M2 (Homo sapiens, UniProt P08172) for C=C1CC[C@H](O)C/C1=C/C=C1\CCC[C@]2(C)[C@@H]([C@H](C)/C=C/[C@H](C)C(C)C)CC[C@@H]12 . Could you help?
Response: > 30 µM

Prompt: Missing value: AC50, Muscarinic acetylcholine receptor M2 (Homo sapiens, UniProt P08172), entry C/C=C/C/C=C/CCC(=O)[C@H]1O[C@H]1C(N)=O . Fill in?
Response: > 30 µM

Prompt: Notebook entry, Muscarinic acetylcholine receptor M2 (Homo sapiens, UniProt P08172) assay: AC50 of COc1cc2nc(N3CCN(C(=O)C4CCCO4)CC3)nc(N)c2cc1OC (configuration not stated) = ?
Response: > 30 µM

Prompt: Request body: readout AC50, system Muscarinic acetylcholine receptor M2 (Homo sapiens, UniProt P08172), query CN1CCC(=C2c3ccccc3Sc3ccccc32)CC1 . Return the value. Further: assay procedure not described here.
Response: 0.0071 µM

Prompt: Which measured AC50 belongs to CC(=O)O[C@]1(C(C)=O)CC[C@H]2[C@@H]3C=C(Cl)C4=CC(=O)CC[C@]4(C)[C@H]3CC[C@@]21C [CHLORMADINONE ACETATE] , tested on Muscarinic acetylcholine receptor M2 (Homo sapiens, UniProt P08172)?; further: assay procedure not described here
Response: 25.3 µM

* * *

Neuropeptide Y receptor type 2 (Homo sapiens): reported AC50 for various compounds. Further: assay procedure not described here.
Sequence (P49146 whole entry): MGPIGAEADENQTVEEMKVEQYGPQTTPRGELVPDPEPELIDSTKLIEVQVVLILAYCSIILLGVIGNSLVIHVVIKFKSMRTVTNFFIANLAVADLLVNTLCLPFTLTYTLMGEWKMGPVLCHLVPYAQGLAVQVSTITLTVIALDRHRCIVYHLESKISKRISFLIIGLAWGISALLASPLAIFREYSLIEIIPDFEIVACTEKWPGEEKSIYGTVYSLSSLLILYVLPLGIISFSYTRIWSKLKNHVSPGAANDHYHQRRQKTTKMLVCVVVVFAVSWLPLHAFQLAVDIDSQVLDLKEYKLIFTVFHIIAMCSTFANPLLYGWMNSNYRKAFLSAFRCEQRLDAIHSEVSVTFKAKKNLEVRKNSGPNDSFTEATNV

Prompt: API: value(readout=AC50, system=Neuropeptide Y receptor type 2 (Homo sapiens)) for record OC1(c2ccc(Cl)cc2)c2ccccc2C2=NCCN21 (stereo not given); further: assay procedure not described here
Response: > 30 µM

Prompt: Item CC(C)Cc1ccc(C(C)C(=O)O)cc1 (stereo not given) with Neuropeptide Y receptor type 2 (Homo sapiens) - AC50?
Response: > 30 µM

Prompt: Neuropeptide Y receptor type 2 (Homo sapiens) / AC50 / O=C(O)c1cn(C2CC2)c2cc(N3CCNCC3)c(F)cc2c1=O : value?
Response: > 30 µM

Prompt: Form entry - test system: Neuropeptide Y receptor type 2 (Homo sapiens); read-out: AC50; compound: CCCN(CCC)C(=O)Cc1c(-c2ccc(Cl)cc2)nc2ccc(Cl)cn12; further: assay procedure not described here
Response: > 10 µM

Prompt: For Neuropeptide Y receptor type 2 (Homo sapiens), provide AC50 of COc1ccccc1OCCNCC(O)COc1cccc2[nH]c3ccccc3c12 (stereo not given) please.
Response: > 30 µM

* * *

# Target of assay: Motilin receptor (Homo sapiens); further: assay procedure not described here
# Sequence (O43193 whole entry): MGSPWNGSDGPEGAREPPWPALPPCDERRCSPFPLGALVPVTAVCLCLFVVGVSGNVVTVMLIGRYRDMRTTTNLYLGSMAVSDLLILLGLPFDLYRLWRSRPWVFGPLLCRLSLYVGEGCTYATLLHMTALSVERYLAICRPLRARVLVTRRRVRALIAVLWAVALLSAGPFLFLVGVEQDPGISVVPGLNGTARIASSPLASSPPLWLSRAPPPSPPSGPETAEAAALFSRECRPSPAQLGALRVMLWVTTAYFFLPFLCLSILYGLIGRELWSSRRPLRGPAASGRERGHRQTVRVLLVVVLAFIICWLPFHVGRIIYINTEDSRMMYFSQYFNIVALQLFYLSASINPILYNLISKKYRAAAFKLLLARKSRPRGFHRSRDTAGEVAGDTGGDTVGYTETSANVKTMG
Result type: AC50

Some molecules with recorded AC50:
CCC(COC(=O)c1cc(OC)c(OC)c(OC)c1)(c1ccccc1)N(C)C (configuration not stated) :: > 30 µM
COc1cc2nccc(Oc3ccc(NC(=O)C4(C(=O)Nc5ccc(F)cc5)CC4)cc3)c2cc1OC [CABOZANTINIB] :: > 30 µM
CC(C)(C)C(=O)OCC(=O)[C@H]1CC[C@H]2[C@@H]3CCC4=CC(=O)CC[C@]4(C)[C@H]3CC[C@]12C [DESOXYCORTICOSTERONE PIVALATE] :: > 10 µM

Prompt: Which AC50 is reported with Motilin receptor (Homo sapiens) for this entry: OC[C@H]1O[C@@](CO)(O[C@H]2O[C@H](CO)[C@@H](O)[C@H](O)[C@H]2O)[C@@H](O)[C@@H]1O ?
Response: > 30 µM

Prompt: // map CCC[C@H](NC(=O)[C@@H]1[C@H]2CCC[C@H]2CN1C(=O)[C@@H](NC(=O)[C@@H](NC(=O)c1cnccn1)C1CCCCC1)C(C)(C)C)C(=O)C(=O)NC1CC1 to recorded AC50 (system: Motilin receptor (Homo sapiens)); further: assay procedure not described here
Response: > 10 µM

Prompt: Form: Entry = Oc1ccc2c(c1)[C@@]13CCCC[C@@]1(O)[C@@H](C2)N(CC1CCC1)CC3 | System = Motilin receptor (Homo sapiens) | AC50 = ____; further: assay procedure not described here
Response: > 30 µM

Prompt: API: value(readout= AC50, system= Motilin receptor (Homo sapiens), query= COc1cc2c(cc1OC)C(CCc1ccc(Cl)cc1)N(C)CC2 (configuration not stated) ); further: assay procedure not described here
Response: > 30 µM

Prompt: Request: AC50, test system Motilin receptor (Homo sapiens), entry O=C(O)CCNC(=O)c1ccccc1; further: assay procedure not described here
Response: > 30 µM

Prompt: Please tell me: AC50 of CN(C)CCC[C@@]1(c2ccc(F)cc2)OCc2cc(C#N)ccc21 , system Motilin receptor (Homo sapiens)?; further: assay procedure not described here
Response: > 30 µM

Prompt: Missing value: AC50, Motilin receptor (Homo sapiens), entry CC(S)C(=O)NCC(=O)O (configuration not stated) . Fill in?
Response: > 30 µM

Prompt: Please provide the recorded AC50 for C[C@@H](NCCCc1cccc(C(F)(F)F)c1)c1cccc2ccccc12 , tested on Motilin receptor (Homo sapiens). Further: assay procedure not described here.
Response: 22 µM

Prompt: Please state recorded AC50 (tested on Motilin receptor (Homo sapiens)) of CNC1=Nc2ccc(Cl)cc2C(c2ccccc2)=[N+]([O-])C1 [CHLORDIAZEPOXIDE]; further: assay procedure not described here
Response: > 10 µM

Prompt: Record lookup: for Motilin receptor (Homo sapiens), what AC50 belongs to CCN(CC)CCN1C(=O)CN=C(c2ccccc2F)c2cc(Cl)ccc21 ?
Response: > 10 µM

Prompt: For the record COc1ccccc1OCCNCC(O)COc1cccc2[nH]c3ccccc3c12 (configuration not stated) , what value of AC50 is listed for Motilin receptor (Homo sapiens)?
Response: 7.61 µM

Prompt: Find AC50 (Motilin receptor (Homo sapiens)) for the entry C=CCNc1nc(NCC=C)nc(N2CCN(C(c3ccc(F)cc3)c3ccc(F)cc3)CC2)n1
Response: > 30 µM

Prompt: Checklist item: AC50 tested on Motilin receptor (Homo sapiens), entry COc1ccccc1Oc1c(NS(=O)(=O)c2ccc(C(C)(C)C)cc2)nc(-c2ncccn2)nc1OCCO , value?; further: assay procedure not described here
Response: > 10 µM

Prompt: Motilin receptor (Homo sapiens) / AC50 / O=C(O)c1ccccc1Nc1cc(Cl)ccc1C(=O)O : value?
Response: > 30 µM

* * *

# Target of assay: 3',5'-cyclic-AMP phosphodiesterase 4D (Homo sapiens, UniProt Q08499); further: assay procedure not described here
# Sequence (Q08499 whole entry): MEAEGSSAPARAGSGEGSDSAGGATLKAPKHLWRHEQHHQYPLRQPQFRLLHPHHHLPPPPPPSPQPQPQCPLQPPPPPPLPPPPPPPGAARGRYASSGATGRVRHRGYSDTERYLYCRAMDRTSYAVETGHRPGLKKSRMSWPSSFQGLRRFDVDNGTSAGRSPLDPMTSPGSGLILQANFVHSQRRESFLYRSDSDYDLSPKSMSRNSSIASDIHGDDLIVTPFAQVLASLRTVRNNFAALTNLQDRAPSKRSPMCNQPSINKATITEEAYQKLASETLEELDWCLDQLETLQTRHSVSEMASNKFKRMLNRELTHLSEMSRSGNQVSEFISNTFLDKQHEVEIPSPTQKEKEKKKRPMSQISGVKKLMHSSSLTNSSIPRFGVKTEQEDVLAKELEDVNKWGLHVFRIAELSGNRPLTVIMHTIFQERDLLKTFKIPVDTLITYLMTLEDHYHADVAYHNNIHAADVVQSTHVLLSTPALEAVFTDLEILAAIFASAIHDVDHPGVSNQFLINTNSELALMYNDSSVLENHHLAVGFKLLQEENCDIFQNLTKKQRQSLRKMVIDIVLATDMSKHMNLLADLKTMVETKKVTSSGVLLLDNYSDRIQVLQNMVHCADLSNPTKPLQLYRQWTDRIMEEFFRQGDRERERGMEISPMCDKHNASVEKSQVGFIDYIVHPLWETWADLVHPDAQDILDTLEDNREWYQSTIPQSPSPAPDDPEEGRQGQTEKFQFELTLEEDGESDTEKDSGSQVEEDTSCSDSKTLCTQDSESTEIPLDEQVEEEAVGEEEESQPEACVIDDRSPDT
# Assay type: functional
AC50 by entry:

COc1cc(N)c(Cl)cc1C(=O)NC1CCN(Cc2ccccc2)CC1 [CLEBOPRIDE] :: 2.9 µM
CC(C(=O)O)c1ccc(-c2ccccc2)c(F)c1 (configuration not stated) :: > 30 µM

Prompt: Value lookup for AC50; key = C[C@]12CCC(=O)C(O)=C1CC[C@@H]1[C@@H]2CC[C@]2(C)C(=O)CC[C@@H]12
Response: > 30 µM

Prompt: May I ask what AC50 has been recorded for CC(=O)N[C@@H](CS)C(=O)O ?
Response: > 30 µM

Prompt: For the compound O=[N+]([O-])c1ccc(O)c2ncccc12 , what AC50 is on record?
Response: 3.2 µM

Prompt: Would you kindly share the measured AC50 for CN(C)CCC[C@@]1(c2ccc(F)cc2)OCc2cc(C#N)ccc21 ?
Response: > 30 µM

Prompt: Quick one: AC50 of CN(C(=O)c1c(O)c2ccccc2n(C)c1=O)c1ccccc1 ?
Response: > 30 µM
